So I've got a bunch of compounds here, and I need their composite z-score values.
Experimental System: E3 ubiquitin-protein ligase XIAP (Homo sapiens) (UniProt P98170)
Sequence (P98170 whole entry, looked up): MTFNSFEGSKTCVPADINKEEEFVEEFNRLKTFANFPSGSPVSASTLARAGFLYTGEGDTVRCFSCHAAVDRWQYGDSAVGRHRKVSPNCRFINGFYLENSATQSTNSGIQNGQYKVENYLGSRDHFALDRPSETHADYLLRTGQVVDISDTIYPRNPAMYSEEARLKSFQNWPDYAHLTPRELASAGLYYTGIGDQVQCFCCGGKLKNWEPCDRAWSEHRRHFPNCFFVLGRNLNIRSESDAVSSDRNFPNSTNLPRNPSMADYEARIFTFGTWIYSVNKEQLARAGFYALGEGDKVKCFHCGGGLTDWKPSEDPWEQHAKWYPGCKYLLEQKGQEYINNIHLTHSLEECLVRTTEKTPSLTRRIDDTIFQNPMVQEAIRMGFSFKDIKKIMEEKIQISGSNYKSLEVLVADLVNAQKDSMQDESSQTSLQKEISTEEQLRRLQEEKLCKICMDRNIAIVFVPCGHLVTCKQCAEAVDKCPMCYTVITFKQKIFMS
Assay Protocol: XIAP binders, primary screen, biophysical, small-molecule microarray, fluorescence 635 nm (AID 1181);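 note: score merges 667 nm emission and signal to noise over triplicate slides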
Conditions Used: small-molecule microarray binding, higher = more signal
Reply with the value as a number alone.

Tell me its composite z-score given CC(C)=CCN(C(=O)C#Cc1ccccc1)[C@H](CO)c1ccccc1 as the entry.
0.165

Tell me its composite z-score given C=CCC(OC(C)=O)[C@@H]1[C@@H](N(Cc2cccc3ccccc23)C(=O)c2cccc3ccccc23)c2cc(OCCCO)ccc2N1C(=O)Cc1ccc2ccccc2c1 (stereo not given in full) as the entry.
0.452

Tell me its composite z-score given COc1ccc([Si](C)(C)[C@H]2[C@H](CCn3cc([C@H](O)c4ccccc4)nn3)O[C@@]3(C(=O)N(C)c4c(Br)cc(C)cc43)[C@@H]2C)cc1 as the entry.
0.0512

Tell me its composite z-score given CC(=O)c1ccc(C(O)C2C=CC3C(=O)NC(=O)C3N2Nc2ccc(Cl)cc2Cl)cc1 (stereo not given) as the entry.
-0.0421

Tell me its composite z-score given Cc1ccccc1C(O)C1C=CC2C(=O)N(c3ccccc3)C(=O)C2N1Nc1ccccc1F (stereo not given) as the entry.
0.202

Tell me its composite z-score given CC(C)CNC(=O)[C@@]1(C)c2ccccc2C(=O)N(Cc2cc(F)cc(C(F)(F)F)c2)[C@H]1c1ccc(CO)cc1 as the entry.
-0.208

Tell me its composite z-score given N[C@@H](Cc1ccccc1)Cn1cc(C2(O)CCCCC2)nn1 as the entry.
-0.0767

Tell me its composite z-score given C=CCNC(=O)[C@H]1[C@@H]2C(=O)O[C@@H](c3ccccc3)[C@@H](c3ccccc3)N2[C@@H](c2ccc(O)cc2)[C@]12C(=O)Nc1ccc(C#CC3=CCCCC3)cc12 as the entry.
-0.124

Tell me its composite z-score given COc1cc2c(cc1O)C(C1CC1)N(Cc1ccc([N+](=O)[O-])o1)CC2 (stereo not given) as the entry.
0.234

Tell me its composite z-score given C=CC(CO)NC(=O)OCC1c2ccccc2-c2ccccc21 (stereo not given) as the entry.
-0.125

Tell me its composite z-score given COC(=O)Cn1c(C(=O)N(C)C)cc2c1C[C@H]1CN(C(=O)c3ccccc3)[C@@](Cc3ccc(OC)cc3)(C(=O)OC)[C@@H]21 as the entry.
-0.158

Tell me its composite z-score given O=C1C2C=CC(C(O)c3ccc([N+](=O)[O-])cc3)N(Nc3ccccc3)C2C(=O)N1c1ccccc1 (stereo not given) as the entry.
-0.0085

Tell me its composite z-score given COC(=O)[C@@]1(Cc2ccc(F)cc2)[C@H]2c3cc(C(=O)N(C)C)n(CCO)c3C[C@H]2CN1C(=O)c1ccccc1 as the entry.
0.49

Tell me its composite z-score given COCCOC(=O)N1C(=O)[C@@]2(c3cc(C#Cc4ccc(OC)cc4)ccc31)[C@H](C(=O)Nc1nc3ccccc3s1)[C@H]1C(=O)O[C@H](c3ccccc3)[C@H](c3ccccc3)N1[C@@H]2c1ccccc1OCCO as the entry.
-0.221

Tell me its composite z-score given COc1ccc([Si](C)(C)[C@H]2[C@H](CC(=O)N3Cc4ccccc4C[C@H]3CO)O[C@@]3(C(=O)N(Cc4cccc(N5C(=O)c6cccc7cccc5c67)c4)c4ccccc43)[C@@H]2C)cc1 as the entry.
0.0153
